assay: Hydroxyl value (Cosmetics Raw Material Standard 24); type: physicochemical; conditions: ester compound; unit assumed
quantity measured: Hydroxyl value (mg KOH/g)
Numbers only, in mg KOH/g.

-- ask Any idea what Hydroxyl value was measured for CCCCC(CC)C(=O)OCC(COC(=O)C(CC)CCCC)(COC(=O)C(CC)CCCC)COC(=O)C(CC)CCCC (stereo not shown) [Com. Prep. Ex. 2, pentaerythrityl tetraethylhexanoate] ?
-- reply 1.25

The reported numbers originate from patent US8367084B2.
